Assay: Cytotoxicity against mouse spleen lymphocytes assessed as cell viability at 1 mg/mL after 48 hrs by MTT assay relative to control
Assay type: tissue-based, Lymphocyte
Settings: read-out: Activity
Reported property: viability at 48 h, 1 mg/mL (%)
Numbers only, in %.

Example cases with answers are listed next.
COc1ccc(C2SCC(=O)Nc3c2c(C)nn3-c2ccccc2)cc1 (centres undefined)
78.8
COc1cc(C2SCC(=O)Nc3ccc4[nH]ncc4c32)cc(OC)c1OC (centres undefined)
166
COc1ccc(C2SCC(=O)Nc3onc(C)c32)cc1OC (centres undefined)
165

Q: Need viability at 48 h, 1 mg/mL of O=C1CSC(c2ccc(Br)cc2)c2c(ccc3[nH]ncc23)N1 (centres undefined) , thanks.
A: 42.6

* * *

Assay: Cytotoxicity against mouse spleen lymphocytes assessed as cell viability at 1 mg/mL after 48 hrs by MTT assay relative to control
Assay type: tissue-based, Lymphocyte
Settings: read-out: Activity
Provide the reported viability at 48 h, 1 mg/mL of each item.
Kindly write the number and append the unit.

Cc1noc2c1C(c1ccc3c(c1)OCO3)SCC(=O)N2 (stereo unspecified)
87.2%

Would you mind listing viability at 48 h, 1 mg/mL for each of the following molecules?
1. Cc1ccc(C2SCC(=O)Nc3onc(C)c32)cc1 (stereo unspecified)
2. CCn1c2ccccc2c2c3c(ccc21)NC(=O)CSC3c1ccc(C)cc1 (stereo unspecified)
3. Cc1noc2c1C(c1ccccc1Cl)SCC(=O)N2 (stereo unspecified)
4. Cc1nn(-c2ccccc2)c2c1C(c1ccc3c(c1)OCO3)SCC(=O)N2 (stereo unspecified)
5. COc1ccc(C2SCC(=O)Nc3ccc4[nH]ncc4c32)cc1 (stereo unspecified)
6. CCn1c2ccccc2c2c3c(ccc21)NC(=O)CSC3c1ccc2c(c1)OCO2 (stereo unspecified)
7. O=C1CSC(c2ccc(Cl)cc2)c2c(ccc3[nH]ncc23)N1 (stereo unspecified)
8. CCn1c2ccccc2c2c3c(ccc21)NC(=O)CSC3c1ccc(OC)c(OC)c1 (stereo unspecified)

A:
1: 103%; 2: 93.2%; 3: 170%; 4: 66.9%; 5: 44.8%; 6: 158%; 7: 67.9%; 8: 101%

Would you mind listing viability at 48 h, 1 mg/mL for each of the following molecules?
1. Cc1nn(-c2ccccc2)c2c1C(c1ccc(Cl)cc1)SCC(=O)N2 (stereo unspecified)
2. CCn1c2ccccc2c2c3c(ccc21)NC(=O)CSC3c1ccc(Br)cc1 (stereo unspecified)

A:
1: 82.3%; 2: 136%

* * *

Assay: Cytotoxicity against mouse spleen lymphocytes assessed as cell viability at 1 mg/mL after 48 hrs by MTT assay relative to control
Type: tissue-based, Lymphocyte
Conditions: read-out: Activity
Reported property: viability at 48 h, 1 mg/mL (%)
Give bare numbers, in %.

Example cases with answers are listed next.
Cc1nn(-c2ccccc2)c2c1C(c1ccccc1Cl)SCC(=O)N2 (stereo unspecified)
68.7
Cc1nn(-c2ccccc2)c2c1C(c1ccc(Cl)cc1Cl)SCC(=O)N2 (stereo unspecified)
156
Cc1noc2c1C(c1cccs1)SCC(=O)N2 (stereo unspecified)
160
CCn1c2ccccc2c2c3c(ccc21)NC(=O)CSC3c1cccs1 (stereo unspecified)
45
Cc1ccc(C2SCC(=O)Nc3c2c(C)nn3-c2ccccc2)cc1 (stereo unspecified)
25.7

Would you mind listing viability at 48 h, 1 mg/mL for each of the following molecules?
1. Cc1nn(-c2ccccc2)c2c1C(c1cccc([N+](=O)[O-])c1)SCC(=O)N2 (stereo unspecified)
2. CCn1c2ccccc2c2c3c(ccc21)NC(=O)CSC3c1ccc(OC)cc1 (stereo unspecified)
3. Cc1ccc(C2SCC(=O)Nc3ccc4[nH]ncc4c32)cc1 (stereo unspecified)
4. Cc1noc2c1C(c1ccc(Br)cc1)SCC(=O)N2 (stereo unspecified)
5. COc1ccc(C2SCC(=O)Nc3onc(C)c32)cc1 (stereo unspecified)
6. O=C1CSC(c2ccc3c(c2)OCO3)c2c(ccc3[nH]ccc23)N1 (stereo unspecified)

A:
[154, 51.4, 20.5, 157, 165, 155]
